Listed here are molecules together with their documented EC50.
# Tested on: stable HCV 1a RLuc replicon cells (genotype 1a H77 replicon)
# Experiment Summary: microbe, parasite or virus in culture
# Assay type: cell-based
# Assay Context: Hepatitis C virus, read-out: 1a (nM)
Answer in nM, number only, no unit symbol.

# Smiles Notation, Units Symbol, Measurement
measured = [
    ("COC(=O)N[C@H](C(=O)N1C[C@@H](C)C[C@H]1c1ncc(-c2ccc3c(c2)COc2cc4c(ccc5nc([C@@H]6CC[C@H](C)N6C(=O)[C@@H](NC(=O)OC)C(C)C)[nH]c54)cc2-3)[nH]1)C(C)C", "nM", 0.005),
    ("COC[C@H]1C[C@@H](c2ncc(-c3ccc4c(c3)COc3cc5c(ccc6nc([C@@H]7C[C@H](COC(F)F)CN7C(=O)[C@@H](NC(=O)OC)C(C)C)[nH]c65)cc3-4)[nH]2)N(C(=O)[C@@H](NC(=O)OC)C(C)C)C1", "nM", 0.012),
    ("COC[C@H]1C[C@@H](c2ncc(-c3ccc4c(c3)COc3cc5c(ccc6nc([C@@H]7CC[C@H](C)N7C(=O)[C@@H](NC(=O)OC)[C@@H](C)OC)[nH]c65)cc3-4)[nH]2)N(C(=O)[C@@H](NC(=O)OC)C(C)C)C1", "nM", 0.031),
]

Continue with the molecule presented below.
The molecule COC(=O)N[C@H](C(=O)N1CCC[C@H]1c1ncc(-c2ccc3c(c2)COc2cc4c(cc2-3)CCc2[nH]c([C@@H]3CCCN3C(=O)[C@H](NC(=O)OC)c3ccccc3)nc2-4)[nH]1)C(C)C , when measured on stable HCV 1a RLuc replicon cells (genotype 1a H77 replicon), yielded EC50 of 0.054

---

Listed here are compounds together with their documented pEC50.
# Test system: NS5A chimeric genotype 2a JFH-1 replicon with genotype 2a J6 strain NS5A gene (M31 present)
# Experiment Summary: microbe, parasite or virus in culture
# Format: cell-based, HCV
# Assay Context: Hepatitis C virus, read-out: 2a J6
pEC50: −log10 of the molar value.

Examples from the recorded data:
# Compound, pEC50
measured = [
    ("COC[C@H]1C[C@@H](c2nc3ccc4cc5c(cc4c3[nH]2)OCc2cc(-c3cnc([C@@H]4C[C@H](C)CN4C(=O)[C@@H](NC(=O)OC)C(C)C)[nH]3)ccc2-5)N(C(=O)[C@H](NC(=O)OC)c2ccccc2)C1 [Example MN]", "> 9.00"),
    ("COC(=O)N[C@H](C(=O)N1CCC[C@H]1c1ncc(-c2ccc3c(c2)COc2cc4c(ccc5nc([C@@H]6C[C@H]7C[C@H]7N6C(=O)[C@@H](NC(=O)OC)C(C)C)[nH]c54)cc2-3)[nH]1)C(C)C [Compound 518]", "8.30 to 9.00"),
    ("CC[C@H](C)[C@H](NC(=O)OC)C(=O)N1C[C@@H](COC)C[C@H]1c1nc2ccc3cc4c(cc3c2[nH]1)OCc1cc(-c2cnc([C@@H]3CC[C@H](C)N3C(=O)[C@@H](NC(=O)OC)C(C)C)[nH]2)ccc1-4 [Example ON]", "> 9.00"),
    ("COC(=O)N[C@H](C(=O)N1CCC[C@H]1c1ncc(-c2ccc3c(c2)COc2cc4c(cc2-3)CCc2[nH]c([C@@H]3CCCN3C(=O)[C@@H](NC(=O)OC)C(C)C)nc2-4)[nH]1)C(C)C [Example ME]", "8.30 to 9.00"),
    ("CC[C@@H](C)[C@H](NC(=O)OC)C(=O)N1C[C@@H](COC)C[C@H]1c1ncc(-c2ccc3c(c2)COc2cc4c(ccc5nc([C@@H]6CC[C@H](C)N6C(=O)[C@@H](NC(=O)OC)C(C)C)[nH]c54)cc2-3)[nH]1 [Example OG]", "> 9.00"),
]

The recorded pEC50 for entry COC(=O)N[C@H](C(=O)N1CCC[C@H]1c1ncc(-c2ccc3c(c2)COc2cc4c(ccc5nc([C@@H]6CCCN6C(=O)[C@H](NC(=O)C6CC6)c6ccccc6)[nH]c54)cc2-3)[nH]1)C(C)C [Compound 516] equals > 9.00

The recorded pEC50 for entry COC[C@H]1C[C@@H](c2nc3ccc4cc5c(cc4c3[nH]2)OCc2cc(-c3cnc([C@@H]4CC6C[C@H]6N4C(=O)[C@@H](NC(=O)OC)C(C)C)[nH]3)ccc2-5)N(C(=O)[C@H](NC(=O)OC)c2ccccc2)C1 (stereo partly drawn) [Example LT] equals > 9.00

The recorded pEC50 for entry COC[C@H]1C[C@@H](c2nc3ccc4cc5c(cc4c3[nH]2)OCc2cc(-c3cnc([C@@H]4C[C@H](C)CN4C(=O)[C@@H](NC(=O)OC)[C@@H](C)OC)[nH]3)ccc2-5)N(C(=O)[C@@H](NC(=O)OC)[C@@H](C)OC)C1 [Example NK] equals > 9.00

The recorded pEC50 for entry COC(=O)N[C@H](C(=O)N1[C@@H](C)CC[C@H]1c1ncc(-c2ccc3c(c2)COc2cc4c(ccc5nc([C@@H]6CCCN6C(=O)[C@@H](NC(=O)OC)C6CCOCC6)[nH]c54)cc2-3)[nH]1)C(C)C [Compound 602] equals > 9.00

---

# Tested on: NS5A chimeric genotype 2a JFH-1 replicon with genotype 2b MD2b-1 strain NS5A gene (M31 present)
# Experiment Summary: microbe, parasite or virus in culture
# Assay type: cell-based, HCV
# Assay Context: Hepatitis C virus, read-out: 2b (t) (nM)
# Method: Evaluation of Cell-Based Anti-HCV Activity: Antiviral potency (EC50) was determined using a Renilla luciferase (RLuc)-based HCV replicon reporter assay. […] 72 hours later, cells were lysed and Renilla luciferase activity quantified as recommended by the manufacturer (Promega-Madison, Wis.). […]
Listed here are molecules together with their documented EC50.
Answer in nM, number only, no unit symbol.

Examples from the recorded data:
# Smiles Notation, Measured Attribute, Measurement
data = [
    ("COC[C@H]1C[C@@H](c2ncc(-c3ccc4c(c3)COc3cc5c(ccc6nc([C@@H]7CCCN7C(=O)[C@@H](NC(=O)OC)C(C)C)[nH]c65)cc3-4)[nH]2)N(C(=O)[C@H](N)c2ccccc2)C1", "EC50", 0.052),
    ("COC[C@H]1C[C@@H](c2ncc(-c3ccc4c(c3)COc3cc5c(ccc6nc([C@@H]7CC[C@H](C)N7C(=O)[C@@H](NC(=O)OC)[C@@H](C)OC)[nH]c65)cc3-4)[nH]2)N(C(=O)[C@@H](NC(=O)OC)C(C)C)C1", "EC50", 0.09),
    ("COC[C@H]1C[C@@H](c2nc3ccc4cc5c(cc4c3[nH]2)OCc2cc(-c3cnc([C@@H]4CC[C@H](C)N4C(=O)[C@@H](NC(=O)OC)C(C)C)[nH]3)ccc2-5)N(C(=O)[C@@H](NC(=O)OC)[C@@H](C)OC)C1", "EC50", 0.053),
]

Continue with the molecule presented below.
The recorded EC50 for entry CC[C@@H](C)[C@H](NC(=O)OC)C(=O)N1C[C@@H](COC)C[C@H]1c1nc2ccc3cc4c(cc3c2[nH]1)OCc1cc(-c2cnc([C@@H]3CC[C@H](C)N3C(=O)[C@@H](NC(=O)OC)[C@H](C)CC)[nH]2)ccc1-4 equals 0.607

---

Listed here are compounds together with their documented EC50.
# System: NS5A chimeric genotype 1b Con1 replicon with genotype 4a ED43 strain NS5A gene
# Experiment Summary: microbe, parasite or virus in culture
# Format: cell-based, HCV
# Assay Context: Hepatitis C virus, read-out: 4a

Examples from the recorded data:
# Compound, Assayed Target, EC50
measured = [
    ("CC[C@H](C)[C@H](NC(=O)OC)C(=O)N1C[C@@H](COC)C[C@H]1c1nc2ccc3cc4c(cc3c2[nH]1)OCc1cc(-c2cnc([C@@H]3CC[C@H](C)N3C(=O)[C@@H](NC(=O)OC)[C@@H](C)CC)[nH]2)ccc1-4 [Example NJ]", "NS5A chimeric genotype 1b Con1 replicon with genotype 4a ED43 strain NS5A gene", "< 1 nM"),
    ("COC[C@H]1C[C@@H](c2ncc(-c3ccc4c(c3)COc3cc5c(ccc6nc([C@@H]7C[C@H]8C[C@H]8N7C(=O)[C@H](NC(=O)OC)c7ccccc7)[nH]c65)cc3-4)[nH]2)N(C(=O)[C@@H](NC(=O)OC)C(C)C)C1 [Example MV]", "NS5A chimeric genotype 1b Con1 replicon with genotype 4a ED43 strain NS5A gene", "< 1 nM"),
    ("COC[C@H]1C[C@@H](c2nc3ccc4cc5c(cc4c3[nH]2)OCc2cc(-c3cnc([C@@H]4CC[C@H](C)N4C(=O)[C@@H](NC(=O)OC)C(C)C)[nH]3)ccc2-5)N(C(=O)[C@H](NC(=O)OC)c2ccccc2)C1 [Example NP]", "NS5A chimeric genotype 1b Con1 replicon with genotype 4a ED43 strain NS5A gene", "< 1 nM"),
]

Continue with the compound presented below.
The recorded EC50 for entry COC[C@H]1C[C@@H](c2ncc(-c3ccc4c(c3)COc3cc5c(ccc6nc([C@@H]7C[C@H](COC)CN7C(=O)[C@@H](NC(=O)OC)C(C)C)[nH]c65)cc3-4)[nH]2)N(C(=O)[C@@H](NC(=O)OC)C(C)C)C1 [Example OI] equals < 1 nM
